Would you kindly list GFP response, % of DMSO for each of these compounds?
assay: modulators of CIT2-GFP expression in yeast, confirmation, S. cerevisiae, GFP fusion, cherry picks, mother/daughter gates (AID 2274); settings: S. cerevisiae CIT2-GFP strain, flow cytometry, 3 h; measured here: daughter cell gate; at 10 µM; stronger effect = higher value
Dear colleague, please return just the value in %, with no unit written.

[Q] Any idea what its GFP response, % of DMSO is? The compound is O=C1C2C3C=CC(CO)(O3)C2C(=O)N1c1ccccc1-c1ccccc1 (stereo unspecified)
[A] 132

[Q] Give its GFP response, % of DMSO value. Item: C=CCOc1ccc(C(=O)/C=C2/C(=O)Nc3ccccc32)cc1
[A] 93.2

[Q] Record request: GFP response, % of DMSO value, item CCC(CC)C(=O)Nc1cccc(/C(C)=N/NC(=O)c2ccccc2Cl)c1
[A] 99.7

[Q] Item under review: CN1CC(=O)NC1=NC(=O)C12CC3CC(CC(C3)C1)C2 . Reported GFP response, % of DMSO?
[A] 94.6

[Q] # input compound: COc1ccccc1-c1noc(CCC(=O)Nc2cccc(C(F)(F)F)c2)n1 ; wanted: its GFP response, % of DMSO
[A] 101

[Q] # input compound: Cn1c(=O)c(C(=O)Nc2ncccc2O)c(O)c2ccccc21 ; wanted: its GFP response, % of DMSO
[A] 90.5

[Q] Requested read-out: GFP response, % of DMSO. Entry: CCOC(=O)c1sc(Nc2nc3c(OC)cccc3s2)nc1C
[A] 90.2

[Q] Give its GFP response, % of DMSO value. Item: CCNC(=O)/C(C#N)=C/c1c(N2CCN(Cc3ccc4c(c3)OCO4)CC2)nc2c(C)cccn2c1=O
[A] 101

[Q] State the recorded GFP response, % of DMSO for this entry: CCCn1c(=O)c(C(=O)Nc2ccccc2)c(O)c2ccccc21
[A] 95.8

[Q] Name the reported GFP response, % of DMSO value associated with the compound O=S1(=O)Nc2c(ccc3cccnc23)-c2ccccc21
[A] 108

[Q] Query: GFP response, % of DMSO; subject: O=C(NNC1=NCCC1)c1cccc(Br)c1
[A] 96.4

----------
assay: modulators of CIT2-GFP expression in yeast, confirmation, S. cerevisiae, GFP fusion, cherry picks, mother/daughter gates (AID 2274); details: S. cerevisiae CIT2-GFP strain, flow cytometry, 3 h; at 10 µM; stronger effect = higher value
valueType: GFP response, % of DMSO (%)
Write it as a number; the unit % goes unstated.

[Q] I have this compound here, O=C(O)COc1c(-c2ccc(Cl)cc2)oc2ccccc2c1=O , and I need its recorded GFP response, % of DMSO.
[A] 96.9

[Q] Endpoint output: GFP response, % of DMSO of O=C(Cn1c(=O)oc2cc(S(=O)(=O)N3CCCC3)ccc21)Nc1ccccc1Br . Value?
[A] 101

[Q] Reported GFP response, % of DMSO for Cc1nc2c(-c3ccc(F)cc3)c(C)nn2c(N2CCOCC2)c1C : what is it?
[A] 104

[Q] Given the compound CCOc1ccccc1NC(=O)c1nc(S(=O)(=O)Cc2ccccc2)ncc1Cl , what is its reported GFP response, % of DMSO?
[A] 98.6

[Q] For the compound shown here, COc1ccc(-c2nn(-c3ccccc3)cc2C(=O)N/N=C/c2ccc([N+](=O)[O-])o2)cc1 , give the reported GFP response, % of DMSO.
[A] 113

[Q] Consider the compound Cc1cccc(CS(=O)(=O)c2ncc(Cl)c(C(=O)Nc3c(C)cccc3C)n2)c1 and give its measured GFP response, % of DMSO.
[A] 100

[Q] Param item = CCOc1ccc(/C=C/C(=O)c2c(O)cc(C)oc2=O)cc1 ; retrieve measured GFP response, % of DMSO.
[A] 93.1

[Q] Please look up its GFP response, % of DMSO: O=C1c2ccccc2C(=O)N1OS(=O)(=O)c1ccc(F)cc1
[A] 121

[Q] // GFP response, % of DMSO lookup, key: CCc1c(C)c2cc(Cl)c(O)c(CN(C)C)c2oc1=O
[A] 95.8

[Q] GFP response, % of DMSO for CCc1nn2c(N3CCOCC3)cc(C)nc2c1-c1ccc(F)cc1 ?
[A] 95.8

----------
target: ATP-binding cassette sub-family B member 6 (Homo sapiens) (UniProt Q9NP58); assay: ABCB6 transporter inhibitors, pilot screen, K562-ABCB6 cells, flow cytometry, validation set (AID 588550); conditions: K562-ABCB6 porphyrin accumulation, 1 h, at 10 µM, stronger effect = higher value;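 also: 0% = DMSO wells and 100% = benzethonium chloride 70 µM positive control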
Sequence (Q9NP58 whole entry, looked up): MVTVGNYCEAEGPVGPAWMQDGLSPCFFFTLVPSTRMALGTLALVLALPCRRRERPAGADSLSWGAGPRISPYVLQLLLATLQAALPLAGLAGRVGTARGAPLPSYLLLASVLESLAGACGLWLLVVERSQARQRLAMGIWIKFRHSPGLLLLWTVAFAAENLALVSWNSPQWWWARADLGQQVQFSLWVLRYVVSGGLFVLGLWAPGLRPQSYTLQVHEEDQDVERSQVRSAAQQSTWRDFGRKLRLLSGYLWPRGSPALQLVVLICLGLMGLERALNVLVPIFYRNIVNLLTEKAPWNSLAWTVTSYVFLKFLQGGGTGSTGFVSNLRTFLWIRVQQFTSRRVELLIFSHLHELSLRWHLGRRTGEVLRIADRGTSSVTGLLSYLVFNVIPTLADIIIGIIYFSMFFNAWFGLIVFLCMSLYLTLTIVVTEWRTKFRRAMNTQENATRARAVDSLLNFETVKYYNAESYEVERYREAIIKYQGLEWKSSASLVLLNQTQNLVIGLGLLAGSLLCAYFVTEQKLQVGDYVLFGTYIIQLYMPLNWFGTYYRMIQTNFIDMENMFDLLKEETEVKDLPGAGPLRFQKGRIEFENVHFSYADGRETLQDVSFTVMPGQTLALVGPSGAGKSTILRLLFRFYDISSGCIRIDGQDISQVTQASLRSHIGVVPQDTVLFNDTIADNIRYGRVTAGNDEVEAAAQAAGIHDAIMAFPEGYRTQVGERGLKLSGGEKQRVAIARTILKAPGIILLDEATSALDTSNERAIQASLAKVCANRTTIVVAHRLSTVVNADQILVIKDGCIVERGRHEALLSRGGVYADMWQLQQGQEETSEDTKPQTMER
Would you mind telling me the reported inhibition of each entry?
Write the answer as a number in %, unit excluded.

[Q] # returns recorded inhibition (system: ATP-binding cassette sub-family B member 6 (Homo sapiens) (UniProt Q9NP58)) for COc1cc(OC)cc(C(=O)N[C@@H](CCSC)c2nc3ccccc3[nH]2)c1
[A] 3

[Q] Provide the documented inhibition with ATP-binding cassette sub-family B member 6 (Homo sapiens) (UniProt Q9NP58) as the system for NS(=O)(=O)c1cc2c(cc1C(F)(F)F)NCNS2(=O)=O
[A] 11

[Q] Enter reported inhibition observed with ATP-binding cassette sub-family B member 6 (Homo sapiens) (UniProt Q9NP58) for CCOC(=O)COc1ccc2c(=O)c(-c3ccccc3)coc2c1
[A] -4

[Q] Enter reported inhibition observed with ATP-binding cassette sub-family B member 6 (Homo sapiens) (UniProt Q9NP58) for c1cc2c(cc1C1CCCCC1)c1c3n2CCN=C3CCC1
[A] -1

[Q] What reported inhibition corresponds to CC(=O)Oc1ccc2occ(/C=N/c3cc(=O)[nH]c(=S)[nH]3)c(=O)c2c1 on ATP-binding cassette sub-family B member 6 (Homo sapiens) (UniProt Q9NP58)?
[A] 10

[Q] Reported inhibition for ATP-binding cassette sub-family B member 6 (Homo sapiens) (UniProt Q9NP58), given COc1cc([C@@H]2c3cc4c(cc3[C@H](O)[C@H]3COC(=O)[C@H]23)OCO4)cc(OC)c1OC ?
[A] 7

[Q] Record lookup: for ATP-binding cassette sub-family B member 6 (Homo sapiens) (UniProt Q9NP58), what inhibition belongs to CCCCC1C(=O)N(c2ccccc2)N(c2ccccc2)C1=O ?
[A] 8

[Q] Entry CCOc1cc(C)cc2oc(=O)cc(-c3ccccc3)c12 , system ATP-binding cassette sub-family B member 6 (Homo sapiens) (UniProt Q9NP58): what inhibition was measured?
[A] 5

----------
assay: inhibitors of fungal efflux pumps CDR1, CDR2, MDR1, pilot screen, validation compound set, multiplex, phenotypic (AID 588506);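 also: Nile Red retained in cells so higher fluorescence means more efflux inhibition; 0 = negative control wells and 1 = enniatin B 25 µM full block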; conditions: S. cerevisiae pump-expressing triplex, Nile Red efflux flow cytometry; at 10 µM; stronger effect = higher value; the pumps come from Candida albicans
Class key for efflux inhibition (fraction of control) values: I: < -0.06; II: ≥ -0.06 and < 0.06; III: ≥ 0.06

[Q] # bin lookup: classify Clc1ccccc1CN1CCc2sccc2C1 by its efflux inhibition (fraction of control)
[A] II

[Q] Where would COc1ccc2nc(Nc3nc(CSc4ccc(C)cc4)cc(=O)[nH]3)nc(C)c2c1 land among the classes by reported efflux inhibition (fraction of control)?
[A] I

[Q] Where would O=c1c2ccccc2nc2n1-c1ccccc1CCC2 land among the classes by reported efflux inhibition (fraction of control)?
[A] I

[Q] Sort into band: Cc1ccc2nc3c(cc(C(=O)NCC4CCCO4)c(=N)n3CCCOC(C)C)c(=O)n2c1 (stereo unspecified)
[A] III

[Q] Hi, small favor: classify CCOc1ccccc1OCCOc1ccc(F)cc1 by its efflux inhibition (fraction of control) when you get a moment.
[A] III

[Q] Band assignment needed for O=C(/C=C/c1ccc2c(c1)OCO2)c1ccccn1 please.
[A] II

[Q] Band assignment needed for COc1ccc(CCn2c(C)cc3c(c2=O)C(c2ccncc2)C(C#N)=C(N)O3)cc1OC (stereo unspecified) please.
[A] I

[Q] Form: Item = CC(=O)Oc1cc(C(C)C)c(OCCN(C)C)cc1C ; Class = ?
[A] III

[Q] Where would CC[N+](C)(CC)CCOC(=O)C(O)(c1ccccc1)C1CCCCC1 (stereo unspecified) land among the classes by reported efflux inhibition (fraction of control)?
[A] II

----------
test: modulators of CIT2-GFP expression in yeast, confirmation, S. cerevisiae, GFP fusion, cherry picks, mother/daughter gates (AID 2274); details: S. cerevisiae CIT2-GFP strain, flow cytometry, 3 h; at 10 µM; stronger effect = higher value
valueType: GFP response, % of DMSO (%)
The figure you give is taken to be in %; do not add the unit.

[Q] So what's the measured GFP response, % of DMSO for this one? O=C(NN1C(=O)/C(=C\c2ccc(O)c([N+](=O)[O-])c2)SC1=S)c1ccccc1Cl
[A] 107

[Q] Any idea what GFP response, % of DMSO was measured for O=C(O)CCCn1nc(-c2ccccc2)c2ccccc21 ?
[A] 103

[Q] Consider the compound shown here: O=[N+]([O-])c1cc(CN2CCN(c3cccc(C(F)(F)F)c3)CC2)c2cccnc2c1O What is its recorded GFP response, % of DMSO?
[A] 138

[Q] # query: GFP response, % of DMSO of entry C/C(CCC12CC3CC(CC(C3)C1)C2)=N\NC(N)=S
[A] 89.8

[Q] Param item = C/C(=N\NC(=O)c1c(Br)c(C)nn1C)c1cccc(NC(=O)C2CCC2)c1 ; retrieve measured GFP response, % of DMSO.
[A] 99.3

[Q] Any idea what its GFP response, % of DMSO is? The compound is CCOC(=O)Cc1csc(NC(=O)COc2ccc(N(C)S(=O)(=O)c3cccs3)cc2)n1
[A] 95.5

[Q] Form field: reported GFP response, % of DMSO of COCCCNC(=O)c1ccc2c3c(onc13)-c1ccccc1C2=O
[A] 96.5

[Q] So what does the record say about GFP response, % of DMSO for O=C(CSc1cccc[n+]1[O-])c1cc2ccccc2o1 ?
[A] 107

[Q] Returns the measured GFP response, % of DMSO for the input compound. Input: COc1ccccc1OC(C)C(=O)Nc1ccccc1C(=O)NCC1CCCO1 (centres undefined)
[A] 97.8

[Q] Would you mind telling me what GFP response, % of DMSO value was observed for CC(=O)c1ccc(N2CCN(S(=O)(=O)c3ccc4c(c3)CC(C)N4C(C)=O)CC2)cc1 (centres undefined) ?
[A] 104

[Q] Recorded GFP response, % of DMSO for CCCc1[nH]nc2c1C(c1ccccc1OCC)C(C#N)=C(N)O2 (centres undefined) , please?
[A] 99.1

[Q] Consider the compound CCN(C(=O)c1ccccc1Cl)c1ccccc1 and give its measured GFP response, % of DMSO.
[A] 100

[Q] What value of GFP response, % of DMSO has been recorded for this entry: O=C(Nc1ccc(F)cc1)C1CCCN(c2cnccn2)C1 (centres undefined)
[A] 102

[Q] Which GFP response, % of DMSO value belongs to CC(Oc1ccc(Cl)cc1Cl)C(=O)NC1=NN(c2ccccc2)C(=O)C1 (centres undefined) ?
[A] 98.3
